- target-of-assay: T1, TNFR1 (Homo sapiens, UniProt P19438)
- T1 chain: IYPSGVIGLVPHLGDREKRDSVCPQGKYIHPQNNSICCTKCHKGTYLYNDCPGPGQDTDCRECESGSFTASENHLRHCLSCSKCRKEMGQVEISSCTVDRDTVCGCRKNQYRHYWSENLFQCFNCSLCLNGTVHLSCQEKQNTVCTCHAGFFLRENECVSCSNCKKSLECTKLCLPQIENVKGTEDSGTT
- assay-method-text: yeast display SC50
measured-quantity: apparent Kd (screen)
Please don't drop the unit; write it after the number.

binder="L28I (designed binder) SMEEEVEKAAKEYEKKKKEAIEKHLEKIKAKDKEAAERFLKELEEAAKEYAKDEAKTMSEEEAKRRAKKYKEKVLLSELSEEEQKEIKEAEEKLVRTILKYVEEAAK" result="1.86 nM"

Lab note: measured apparent Kd (screen) of E44C (designed binder) SMEEEVEKAAKEYEKKKKEAIEKHLEKLKAKDKEAAERFLKELCEAAKEYAKDEAKTMSEEEAKRRAKKYKEKVLLSELSEEEQKEIKEAEEKLVRTILKYVEEAAK was 0.446 nM

# credit: paper PMC12416549
